Quantity Measured: melting point

1. CN1N=Cc2ccc(Cl)cc2S1(=O)=O :: 131 to 133 °C
2. CC1=NNS(=O)(=O)c2ccccc21 :: 183 to 185 °C
3. COc1ccc2c(c1)C=NNS2(=O)=O :: 163 to 164 °C
4. CN1N=Cc2ccccc2S1(=O)=O :: 79 to 80 °C
5. O=S1(=O)NN=Cc2ccc(Cl)cc21 :: 221 to 223 °C
6. CC1=NN(C)S(=O)(=O)c2c(Cl)c(Cl)cc(C)c21 :: 166 to 168 °C
7. O=S1(=O)NN=Cc2ccc(Cl)c(Cl)c21 :: 183 to 185 °C
8. CCC1=NN(C)S(=O)(=O)c2c1ccc(Cl)c2Cl :: 119 to 120 °C
9. CN1N=Cc2ccc(Cl)c(Cl)c2S1(=O)=O :: 120 to 121 °C
10. CC1=NNS(=O)(=O)c2cc(Cl)ccc21 :: 187 to 189 °C
11. COc1ccc2c(c1Cl)S(=O)(=O)N(C)N=C2 :: 173 to 175 °C
12. CC1=NNS(=O)(=O)c2c1cc(C)c(Cl)c2Cl :: 224 to 226 °C
13. CC1=NNS(=O)(=O)c2c(Cl)cccc21 :: 206 to 207 °C
14. CC1=NN(C)S(=O)(=O)c2c1cc(C)c(Cl)c2Cl :: 179 to 180 °C
15. CCC1=NNS(=O)(=O)c2cc(Cl)ccc21 :: 196 to 198 °C
16. CCC1=NN(CC)S(=O)(=O)c2c1ccc(Cl)c2Cl :: 79 to 82 °C
17. COc1ccc2c(c1)C=NN(C)S2(=O)=O :: 99 to 101 °C
